Origin of values: patent US20070104644A1

biological target: MMP-9 (Homo sapiens)
Sequence (P14780 94-707): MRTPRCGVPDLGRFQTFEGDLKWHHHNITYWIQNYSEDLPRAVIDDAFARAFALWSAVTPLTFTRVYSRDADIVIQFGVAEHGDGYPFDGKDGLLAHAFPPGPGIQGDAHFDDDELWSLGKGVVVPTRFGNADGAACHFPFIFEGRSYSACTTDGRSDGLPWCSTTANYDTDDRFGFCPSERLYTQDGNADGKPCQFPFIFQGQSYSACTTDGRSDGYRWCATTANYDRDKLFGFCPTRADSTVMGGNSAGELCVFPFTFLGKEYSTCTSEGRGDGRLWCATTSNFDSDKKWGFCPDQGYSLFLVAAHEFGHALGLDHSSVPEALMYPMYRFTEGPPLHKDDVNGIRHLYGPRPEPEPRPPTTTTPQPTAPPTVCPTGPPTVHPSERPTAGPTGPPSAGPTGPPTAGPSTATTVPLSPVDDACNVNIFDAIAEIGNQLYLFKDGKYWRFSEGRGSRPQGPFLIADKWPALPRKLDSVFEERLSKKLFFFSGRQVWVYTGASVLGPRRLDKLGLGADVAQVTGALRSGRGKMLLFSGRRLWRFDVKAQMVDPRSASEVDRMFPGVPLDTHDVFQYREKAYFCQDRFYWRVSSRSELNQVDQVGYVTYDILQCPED
reported property: pKi
Kindly note that pKi refers to -log10 of the concentration in mol/L and answer with the value alone.

Request: Form field: reported pKi of O=C(CCN(C1(C(=O)NO)CCCC1)S(=O)(=O)c1ccc(Oc2ccc(F)cc2)cc1)NCCc1ccc(O)c(I)c1
Result: 9.24

====

Collected Tumour/Heart, mean values appear next to each entry.
tested on: Lewis lung carcinoma (LLC) tumour; test: Biodistribution in LLC tumour model in vivo; set-up: species or system C57BL/6 mice; details: 60 min post injection
Could you respond with only the numeric value?

// known answers, use as guide
compound	Tumour/Heart, mean
NC(=O)[C@H](Cc1ccc(O)c([123I])c1)NC(=O)CCOCCOCCOCCOCCOCCOCCOCCOCCOCCOCCOCCNC(=O)CCN(C1(C(=O)NO)CCCC1)S(=O)(=O)c1ccc(Oc2ccc(F)cc2)cc1 [Compound 44A]	0.940
NC(=O)[C@H](Cc1ccc(O)c([123I])c1)NC(=O)[C@H](CCC(=O)O)NC(=O)[C@H](CCC(=O)O)NC(=O)[C@H](CCC(=O)O)NC(=O)[C@H](CCC(=O)O)NC(=O)[C@H](CCC(=O)O)NC(=O)CCN(C1(C(=O)NO)CCCC1)S(=O)(=O)c1ccc(Oc2ccc(F)cc2)cc1 [Compound 21A]	1.14
NC(=O)[C@H](Cc1ccc(O)c([123I])c1)NC(=O)CCOCCOCCOCCOCCOCCOCCOCCOCCOCCOCCOCCNC(=O)CCOCCOCCOCCOCCOCCOCCOCCOCCOCCOCCOCCNC(=O)CCN(C1(C(=O)NO)CCCC1)S(=O)(=O)c1ccc(Oc2ccc(F)cc2)cc1 [Compound 32A]	1.31

Request: Hello, I am looking for reported Tumour/Heart, mean with Lewis lung carcinoma (LLC) tumour for O=C(CCN(C1(C(=O)NO)CCCC1)S(=O)(=O)c1ccc(Oc2ccc(F)cc2)cc1)NCCc1ccc(O)c([123I])c1 [Compound 24A] . Could you help?
Result: 0.68
